System: Mycobacterium tuberculosis
Assay: Cornell - Phenotypic assay to identify agents that inhibit growth of Mycobacterium tuberculosis
Type: functional
Parameters: scale not given: direction of the effect not stated beside the values
Settings: 10 mM as filed; unlikely as a test dose
In all, about 53,000 compounds went through this assay and about 900 (1.7%) showed an effect of 50% or more. Only a selection was taken, and strong results are over-represented in it overall.
readout.name: Percent Effect (%)
Give the value, in units of %, as a plain number.

Some entries whose results are on file:
{"compound": "O=c1c2ccccc2nc2n1CCN(Cc1cccs1)CC2", "Percent Effect (%)": 20.89}
{"compound": "Cl.Cn1cncc1CN1CCc2nc3sccc3c(=O)n2CC1", "Percent Effect (%)": 43.45}
{"compound": "CC(C(=O)NCC(C)(C)c1ccc2c(c1)OCCO2)n1cncn1 (configuration not stated)", "Percent Effect (%)": -4.418}

Query: Entry Cc1c(CN2C[C@@H](O)[C@H](Oc3cccc(F)c3)C2)cnn1C has what Percent Effect?
Result: -27.75

Query: Entry Cc1nn(C)cc1CN1CCN(CC2(c3ccccc3)CC2)CC1 has what Percent Effect?
Result: 18.35

----------
Tested on: Mycobacterium tuberculosis
Experiment: Cornell - Phenotypic assay to identify agents that inhibit growth of Mycobacterium tuberculosis
Type: functional
Design: scale not given: direction of the effect not stated beside the values
Details: 10 mM as filed; unlikely as a test dose
Among all 53,000 compounds or so, about 900 (1.7%) showed an effect of 50% or more. For the sample, strong results were picked, then their nearest neighbours and some compounds at random.
Use Percent Effect to assign classes; range list: I (below 10%), II (10% to below 40%), III (40% or more)

Field: example entries. Status: answers known.
{"compound": "COC(=O)COc1c(F)cc(Br)cc1C(C)=O", "label.value": "I"}
{"compound": "O=S(=O)(NCCNc1ccc(-n2cccc2)nn1)c1ccccc1", "label.value": "III"}
{"compound": "COC(=O)N1CCN2C[C@H](CO)[C@@H](c3ccccc3)[C@H]2C1", "label.value": "I"}
{"compound": "Cl.Cl.Clc1cccc(C[C@@H]2NCCC[C@@H]2Nc2ccccc2)c1", "label.value": "III"}
{"compound": "O=S(=O)(NCCNc1cc(-n2cccn2)ncn1)c1cccs1", "label.value": "I"}

Query: Dear colleague, I would appreciate it if you could identify the bin for CN1CCN(C(=O)CCn2nnc3ccccc32)CC(C(N)=O)C1 (centres undefined) and reply at your convenience.
Result: III

Query: Dear colleague, I would appreciate it if you could identify the bin for Cn1cc(C2=NOC(C(=O)NC3(c4cccc(F)c4)CCCC3)C2)cn1 (centres undefined) and reply at your convenience.
Result: I

Query: Dear colleague, I would appreciate it if you could identify the bin for CCS(=O)(=O)NCCNc1cc(-n2cccc2)ncn1 and reply at your convenience.
Result: II

Query: Dear colleague, I would appreciate it if you could identify the bin for Cc1nnsc1C(=O)NCCNS(=O)(=O)c1cccs1 and reply at your convenience.
Result: I

----------
System: Mycobacterium tuberculosis
Assay: Cornell - Phenotypic assay to identify agents that inhibit growth of Mycobacterium tuberculosis
Format: functional
Set-up: scale not given: direction of the effect not stated beside the values
Details: 10 mM as filed; unlikely as a test dose
Screen size: about 53,000 compounds; about 900 (1.7%) showed an effect of 50% or more. For the sample, strong results were picked, then their nearest neighbours and some compounds at random.
readout.name: Percent Effect (%)
Give the value, in units of %, as a plain number.

Some entries whose results are on file:
{"compound": "FC1(F)CCN(Cc2cccnc2)CC12CCN(c1ccccc1)C2.O=C(O)C(F)(F)F.O=C(O)C(F)(F)F.O=C(O)C(F)(F)F (centres undefined)", "obs.value": 59.15}
{"compound": "COc1ccc(C(NCc2ccc(C#N)cc2)C2CC2)cc1.Cl (centres undefined)", "obs.value": -15.68}
{"compound": "Cc1cc(NCCO)nc2[nH]nc(N)c12", "obs.value": 15.94}

Query: Entry CN1C[C@@H](N)C[C@H]1C(=O)N1CCC(Cc2ccc(F)cc2)CC1 has what Percent Effect?
Result: -16.49

Query: Entry Cc1nnc(NCc2ccc(N3CCC(CO)CC3)cc2)c(C#N)c1C has what Percent Effect?
Result: -12.64
